Source of measurements: ChEMBL document CHEMBL4888484

Property: % Inhibition; scope: individual compounds
- Tested on: Plasmodium falciparum
- ASSAY SUMMARY: Primary screen in NF54 nanoGlo assay, in single point, at 2uM, 72h
- Format: functional, Erythrocyte
- CONDITIONS: timepoint 72 hour
The campaign covered roughly 150,000 compounds. About 540 (0.36%) showed an effect of 50% or more. What follows is part of a selection rich in strong results, with near analogues and random picks from the rest.
Expressed in %, but write only the number.

# example entries with known answers
[[record]]
compound = "O=C(C1CCC1c1ccc(F)cc1)N1CCCC(c2nc3ccc(F)cc3o2)C1 (stereo not given)"
measured_value = -10

[[record]]
compound = "OC1=Nc2c(ncn2-c2cc(F)cc(F)c2)[C@@H](c2cccnc2)C1"
measured_value = 34

[[record]]
compound = "COC(=O)C1CN(C(=O)CCc2cnn(C)c2)CC1c1ccccc1 (stereo not given)"
measured_value = -13

[[record]]
compound = "CCn1cc(C#N)c(=O)c2cc(F)c(N3CCN(Cc4ccccc4)CC3)cc21"
measured_value = 68

[[record]]
compound = "CCn1cc(-c2nc(-c3ccccc3C)no2)c(=O)c2cc(F)c(N3CCCCC3)cc21"
measured_value = 51


Okay, next one:
Can you share its % Inhibition? I mean this compound: Cc1ccc(S(=O)(=O)c2cn(Cc3ccccc3)c3cc(N4CCCCC4)c(F)cc3c2=O)cc1
-24

----------
- Tested on: Plasmodium falciparum
- ASSAY SUMMARY: Primary screen in NF54 nanoGlo assay, in single point, at 2uM, 72h; a lower Z score goes with more inhibition
- Format: functional, Erythrocyte
- CONDITIONS: timepoint 72 hour
The campaign covered roughly 150,000 compounds. About 540 (0.36%) showed an effect of 50% or more. The sample as a whole holds a higher share of strong results than the screen did.
Sorting guide: entries reporting Z score beneath 0.7 go in the YES pile, the rest go in the NO pile.

[[record]]
compound = "COc1ccc(CC(=O)N2CC3(C[C@H](N4CCN(C)CC4)CO3)C2)cc1"
category_label = "NO"

[[record]]
compound = "CC(=O)c1ccc(NC(=O)c2cc3n(n2)CCCO3)cc1"
category_label = "NO"

[[record]]
compound = "Cc1cccc(-n2c(=O)[nH]c3nc(N4CCCC4)ncc3c2=O)c1C"
category_label = "YES"

[[record]]
compound = "Cc1ccc(-n2cc(NC(=O)c3cc(C)no3)cn2)c(C)c1"
category_label = "YES"


# strict comparison: is reported Z score < 0.7? input = Cc1nn(C)cc1CN(Cc1ccncc1)C1CCCCC1
YES

Also need Cc1nn(-c2cnc(N)cn2)c(C)c1Cc1ccccc1 , thanks.
NO

Also need COc1ccc(CN(Cc2nnn(C)n2)C2CCCCC2)cc1OC , thanks.
NO

Also need Cc1cccc(-n2c(=O)[nH]c3nc(NCCN(C)C)ncc3c2=O)c1C , thanks.
YES

Also need CCNC(=O)O[C@@H]1CC[C@]2(C)C(CC[C@@H](O)[C@H]2CC(=O)NCc2cccs2)[C@]1(C)CO (stereo partly specified) , thanks.
YES

Also need CC(C)n1ccnc1CN1CCC[C@@](O)(CNC(=O)N2CCCCC2)CC1 , thanks.
YES

Also need COc1ccc(C[C@@H]2C3=C(CCCC3)CCN2C(=O)c2cc(C)on2)cc1 , thanks.
NO
